assay: total protein half-life in vivo (active degradation + dilution); higher = more stable protein; conditions: E. coli NCM3722 delta-lon; growth: N-lim chemostat; doubling time 6 h
Record Criterion met whenever total protein half-life in vivo is at 6 h or higher; record Criterion not met when lower.

### Prompt Check the entry `MNDIAHNLAQVRDKISAAATRCGRSPEEITLLAVSKTKPASAIAEAIDAGQRQFGENYVQEGVDKIRHFQELGVTGLEWHFIGPLQSNKSRLVAEHFDWCHTIDRLRIATRLNDQRPAELPPLNVLIQINISDENSKSGIQLAELDELAAAVAELPRLRLRGLMAIPAPESEYVRQFEVARQMAVAFAGLKTRYPHIDTLSLGMSDDMEAAIAAGSTMVRIGTAIFGARDYSKK` : does total protein half-life in vivo equal or exceed 6 h?
### Response Criterion not met

### Prompt Check the entry `MEFFKKTALAALVMGFSGAALALPNITILATGGTIAGGGDSATKSNYTVGKVGVENLVNAVPQLKDIANVKGEQVVNIGSQDMNDNVWLTLAKKINTDCDKTDGFVITHGTDTMEETAYFLDLTVKCDKPVVMVGAMRPSTSMSADGPFNLYNAVVTAADKASANRGVLVVMNDTVLDGRDVTKTNTTDVATFKSVNYGPLGYIHNGKIDYQRTPARKHTSDTPFDVSKLNELPKVGIVYNYANASDLPAKALVDAGYDGIVSAGVGNGNLYKSVFDTLATAAKTGTAVVRSSRVPTGATTQDAEVDDAKYGFVASGTLNPQKARVLLQLALTQTKDPQQIQQIFNQY` : does total protein half-life in vivo equal or exceed 6 h?
### Response Criterion not met

### Prompt Check the entry `MLINIGRLLMLCVWGFLILNLVHPFPRPLNIFVNVALIFTVLMHGMQLALLKSTLPKDGPQMTTAEKVRIFLFGVFELLAWQKKFKVKK` : does total protein half-life in vivo equal or exceed 6 h?
### Response Criterion met

### Prompt Check the entry `MQSVDVAIVGGGMVGLAVACGLQGSGLRVAVLEQRVQEPLAANAPPQLRVSAINAASEKLLTRLGVWQDILSRRASCYHGMEVWDKDSFGHISFDDQSMGYSHLGHIVENSVIHYALWNKAHQSSDITLLAPAELQQVAWGENETFLTLKDGSMLTARLVIGADGANSWLRNKADIPLTFWDYQHHALVATIRTEEPHDAVARQVFHGEGILAFLPLSDPHLCSIVWSLSPEEAQRMQQASEDEFNRALNIAFDNRLGLCKVESARQVFPLTGRYARQFASHRLALVGDAAHTIHPLAGQGVNLGFMDAAELIAELKRLHRQGKDIGQYIYLRRYERSRKHSAALMLAGMQGFRDLFSGTNPAKKLLRDIGLKLADTLPGVKPQLIRQAMGLNDLPEWLR` : does total protein half-life in vivo equal or exceed 6 h?
### Response Criterion not met

### Prompt Check the entry `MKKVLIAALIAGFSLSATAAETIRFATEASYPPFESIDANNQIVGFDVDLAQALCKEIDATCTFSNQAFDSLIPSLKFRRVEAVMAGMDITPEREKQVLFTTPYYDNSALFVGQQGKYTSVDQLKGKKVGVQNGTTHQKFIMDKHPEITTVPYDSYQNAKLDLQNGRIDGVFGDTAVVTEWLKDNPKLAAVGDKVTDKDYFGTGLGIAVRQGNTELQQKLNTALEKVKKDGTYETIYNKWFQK` : does total protein half-life in vivo equal or exceed 6 h?
### Response Criterion met

### Prompt Check the entry `MTLDLPRRFPWPTLLSVCIHGAVVAGLLYTSVHQVIELPAPAQPISVTMVTPADLEPPQAVQPPPEPVVEPEPEPEPIPEPPKEAPVVIEKPKPKPKPKPKPVKKVQEQPKRDVKPVESRPASPFENTAPARLTSSTATAATSKPVTSVASGPRALSRNQPQYPARAQALRIEGQVKVKFDVTPDGRVDNVQILSAKPANMFEREVKNAMRRWRYEPGKPGSGIVVNILFKINGTTEIQ` : does total protein half-life in vivo equal or exceed 6 h?
### Response Criterion not met

### Prompt Check the entry `MVINCAFIGFGKSTTRYHLPYVLNRKDSWHVAHIFRRHAKPEEQAPIYSHIHFTSDLDEVLNDPDVKLVVVCTHADSHFEYAKRALEAGKNVLVEKPFTPTLAQAKELFALAKSKGLTVTPYQNRRFDSCFLTAKKAIESGKLGEIVEVESHFDYYRPVAETKPGLPQDGAFYGLGVHTMDQIISLFGRPDHVAYDIRSLRNKANPDDTFEAQLFYGDLKAIVKTSHLVKIDYPKFIVHGKKGSFIKYGIDQQETSLKANIMPGEPGFAADDSVGVLEYVNDEGVTVREEMKPEMGDYGRVYDALYQTITHGAPNYVKESEVLTNLEILERGFEQASPSTVTLAK` : does total protein half-life in vivo equal or exceed 6 h?
### Response Criterion not met

### Prompt Check the entry MNLHEYQAKQLFARYGLPAPVGYACTTPREAEEAASKIGAGPWVVKCQVHAGGRGKAGGVKVVNSKEDIRAFAENWLGKRLVTYQTDANGQPVNQILVEAATDIAKELYLGAVVDRSSRRVVFMASTEGGVEIEKVAEETPHLIHKVALDPLTGPMPYQGRELAFKLGLEGKLVQQFTKIFMGLATIFLERDLALIEINPLVITKQGDLICLDGKLGADGNALFRQPDLREMRDQSQEDPREAQAAQWELNYVALDGNIGCMVNGAGLAMGTMDIVKLHGGEPANFLDVGGGATKERVTEAFKIILSDDKVKAVLVNIFGGIVRCDLIADGIIGAVAEVGVNVPVVVRLEGNNAELGAKKLADSGLNIIAAKGLTDAAQQVVAAVEGK [P0A836] : does total protein half-life in vivo equal or exceed 6 h?
### Response Criterion not met

### Prompt Check the entry `MKLTTHHLRTGAALLLAGILLAGCDQSSSDAKHIKVGVINGAEQDVAEVAKKVAKEKYGLDVELVGFSGSLLPNDATNHGELDANVFQHRPFLEQDNQAHGYKLVAVGNTFVFPMAGYSKKIKTVAQIKEGATVAIPNDPTNLGRALLLLQKEKLITLKEGKGLLPTALDITDNPRHLQIMELEGAQLPRVLDDPKVDVAIISTTYIQQTGLSPVHDSVFIEDKNSPYVNILVAREDNKNAENVKEFLQSYQSPEVAKAAETIFNGGAVPGW` : does total protein half-life in vivo equal or exceed 6 h?
### Response Criterion met
